assay: Ratio of drug level in heart to blood in Sprague-Dawley rat at 37 to 111 MBq, iv measured at 24 hrs; format: ADME, organism-based
RECORDED_ENDPOINT: Kp at 24 h
// no unit, no text: just the number

Kp at 24 h for COc1cc2c(cc1OC)[C@@H]1C(=O)c3ccc4c(c3O[C@@H]1CO2)C[C@H](C(C)(O)C[123I])O4 (stereo partly specified) is 0.79

====

experiment: Ratio of drug level in heart to blood in Sprague-Dawley rat measured at 2 hrs; assay type: ADME
RECORDED_ENDPOINT: Kp at 2 h
// no unit, no text: just the number

Kp at 2 h for `COc1cc2c(cc1OC)[C@@H]1C(=O)c3ccc4c(c3O[C@@H]1CO2)C[C@H](/C(C)=C\[125I])O4` is 22.4

====

test: Biodistribution in rat liver at 60 mins; type: ADME, organism-based; conditions: read-out: Drug uptake
RECORDED_ENDPOINT: tissue uptake at 1 h (%ID/g)
Write the value in %ID/g as a bare number.

tissue uptake at 1 h for `CC(C)(C)n1ncc(OCc2ccc(CCCC[18F])cc2)c(Cl)c1=O` is 1.3
